# Tested on: SNB-75 CNS
# Protocol: NCI-60 one-dose screen, 48 h (100 = growth as untreated, 0 = no growth, -100 = all killed)
# Settings: 10 µM unless noted
Compounds without any hit were thinned out: in the full panel of roughly 83,000, 20% have a hit. Activity calls are given as the source filed them. How the source made its calls: active means growth percent below 10; inactive means the rest.
Observable: growth

Take a look at these entries with their results.
Compound | growth
CN1c2ccccc2S(=O)(=O)n2c(SCC(=O)Nc3nc4ccc(F)cc4s3)nnc21 | 90.7% (inactive)
O=C(Cn1nc(-c2cccc3ccccc23)ccc1=O)NCc1cccc(Cl)c1 | 74.3% [50 µM] (inactive)
Fc1cc2[nH]ncc2c2c3c(c(-c4cn[nH]c4C(F)(F)F)nc12)CCCC3 | -26.5% (active)

Prompt line: Provide the documented growth with SNB-75 CNS as the system for S=c1ccnc[nH]1
Response line: 120% (inactive)

Prompt line: Repeat for the following compound: c1ccc(-c2nc3ccccc3[nH]2)c(OCCCCCOc2ccccc2-c2nc3ccccc3[nH]2)c1
Response line: 89.8% (inactive)

Prompt line: What do you get for Cc1cc2oc(/C=C/c3ccccc3)cc(=O)c2c(C)c1Cl ?
Response line: 116% (inactive)

Prompt line: Let us now turn to COc1cc(N2C(=O)[C@H](Cl)C2c2ccc(SC)cc2)cc(OC)c1OC (stereo not given in full)
Response line: 73.9% (inactive)

Prompt line: Also CCCC(=O)NC(c1ccc2c(c1)OCO2)c1cc(Cl)c2cccnc2c1O (stereo not given) , if possible.
Response line: 6.73% (active)

Prompt line: Same thing, different compound: COC(=O)[C@@]1(C)CC[C@]2(C)CC[C@]3(C)C4=CC=C5C(=CC(=O)C(O)=C5C)[C@]4(C)[C@@H](O)C[C@@]3(C)[C@@H]2C1
Response line: 70.5% (inactive)

Prompt line: Next entry: CCOC(=O)c1nnn(Cc2cc(=O)oc3ccc(O)cc23)c1C
Response line: 93.4% (inactive)

Prompt line: What would you report for Cc1ccc(OCCOCCOCCOCCOCCOc2ccc(C)n(O)c2=S)c(=S)n1O ?
Response line: 24.8% (inactive)

Prompt line: Entry CN(C)c1ccc(C(=S)c2ccc(N(C)C)cc2)cc1 please
Response line: 78.1% (inactive)

Prompt line: Try this compound too: CN(C)c1ccc(/C=C2\C=C(c3nc4ccccc4s3)OC2=O)cc1
Response line: 87.2% (inactive)

Prompt line: Same for Brc1ccc(Nc2nc(Nc3cnc4ccccc4c3)c3[nH]cnc3n2)cc1
Response line: 77.5% (inactive)

Prompt line: Input Cn1c(C#N)ccc1-c1ccc(F)c(NC(=O)c2ccc(F)cc2)c1
Response line: 71.4% (inactive)

Prompt line: Would you mind doing Cc1ccc(C2CC(c3cccc(Nc4ccncc4)c3)=Nc3c(N)nc(N)nc3N2)cc1 (stereo not given) as well?
Response line: 70% (inactive)

Prompt line: Now this one: c1cc(OCCCCCOc2cccc(-c3nc4ccccc4[nH]3)c2)cc(-c2nc3ccccc3[nH]2)c1
Response line: 31.4% (inactive)

Prompt line: Record: CS(=O)(=O)Nc1cc(-c2ccc3ncnc(Nc4ccc5c(cnn5Cc5ccncc5)c4)c3c2)cnc1Cl
Response line: 8.94% (active)

Prompt line: Same again, this time with COc1cc2ncnc(Nc3ccc(S(=O)(=O)Nc4nccs4)cc3)c2cc1OCCCN1CCCC1
Response line: 93.8% (inactive)

Prompt line: Then this compound: COc1cc2ncnc(Nc3ccc(F)c(Cl)c3)c2cc1OCC(=O)N1CCOCC1
Response line: 102% (inactive)
